Recorded pIC50 for molecules tested on BRDT (Homo sapiens, UniProt Q58F21), drawn from a number of studies.
pIC50: −log10 of the molar value.
MEASURED_ENDPOINT: pIC50

{"RECORD_SMILES": "Cc1cnc(Nc2ccc(N3CCN(C)CC3)c(F)c2)nc1Nc1cccc(NS(=O)(=O)C(C)(C)C)c1", "pIC50": 7.38}

P: CN1C(=O)c2ccccc2N(C)c2nc(Nc3ccc(C(=O)O)cc3OC3CCCC3)ncc21
Q: CC[C@@H]1C(=O)Nc2cnc(Nc3ccc(C(=O)NC4CCN(C)CC4)cc3OC)nc2N1C1CCCC1
R: CC[C@@H]1C(=O)N(C)c2ccc(N3CCc4cc(C(=O)NC5CCN(C)CC5)ccc43)nc2N1C1CCCC1
S: Cc1cnc(Nc2ccc(N3CCN(C)CC3)cc2)nc1Nc1cccc(NS(=O)(=O)C(C)(C)C)c1
Q: List by increasing pIC50. Note for the reader: the ranking is given by listing the labels in the order requested.
A: Q, P, R, S
(Q: 4.68, P: 5.56, R: 5.98, S: 7.54)

* * *

Recorded IC50 for compounds tested on BRDT (Homo sapiens, UniProt Q58F21), drawn from a number of studies.
MEASURED_ENDPOINT: IC50 (nM)

{"RECORD_SMILES": "CC[C@@H]1C(=O)N(C)c2cnc(Oc3ccc(C(=O)NC4CCN(C)CC4)cc3OC)nc2N1C1CCCC1", "MEASUREMENT_TARGET": "BRDT (Homo sapiens, UniProt Q58F21)", "IC50, nM": 1170}
{"RECORD_SMILES": "C[C@@H]1C(=O)N(C)c2ccc(N3CCc4cc(C(=O)NC5CCN(C)CC5)ccc43)nc2N1C1CCCC1", "MEASUREMENT_TARGET": "BRDT (Homo sapiens, UniProt Q58F21)", "IC50, nM": 469}
{"RECORD_SMILES": "COc1cc(Nc2nc(Nc3ccc(N4CCN(C)CC4)cc3)ncc2C)ccc1Cl", "MEASUREMENT_TARGET": "BRDT (Homo sapiens, UniProt Q58F21)", "IC50, nM": 1400}

I: COc1cc(C(=O)N2CCC(N3CCN(C)CC3)CC2)ccc1Nc1ccc2c(n1)N(C)c1ccccc1C(=O)N2C
II: CC[C@@H]1C(=O)N(C)c2cnc(N(C)c3ccc(C(=O)NC4CCN(C)CC4)cc3OC)nc2N1C1CCCC1
Q: Lab note: check whether I or II has the lower measured IC50. Please reply using the label of the selected record.
A: II
(II: 365 nM, I: 3680 nM)

* * *

Recorded IC50 for molecules tested on BRDT (Homo sapiens, UniProt Q58F21), drawn from a number of studies.
MEASURED_ENDPOINT: IC50 (µM)

{"RECORD_SMILES": "COc1cc(C(=O)NC2CCN(C)CC2)ccc1Nc1ncc2c(n1)N(C1CCCC1)[C@H](CC(C)C)C(=O)N2C", "ENDPOINT_UNIT": "µM", "IC50": 24.5}

a: CC(=O)N1c2ccc(-c3ccoc3)cc2[C@H](NC(=O)OC(C)C)C[C@@H]1C
b: Cc1cnc(Nc2ccc(N3CCN(C)CC3)c(F)c2)nc1Nc1ccc(Cl)c(NS(=O)(=O)C(C)(C)C)c1
Q: Choose between a and b : whose measured IC50 value is numerically larger? Please reply using the label of the selected record.
A: a
(a: 23 µM, b: 0.019 µM)
